# study target: HIV-1 protease (Human immunodeficiency virus type 1 group M subtype B, UniProt P04585)
# measurement notes: biochemical
# experimental setup: HIV-1 protease; upper line of each compound's entry; read-out: Ki (enzyme)
endpoint: Ki

Examples with answers:
>>> print(df.to_string())
                                 mol_smiles        result
0  CC(C)ON(C[C@@H](O)[C@H](Cc1ccccc1)NC(=O)OC(C)(C)C)S(=O)(=O)c1cccc(N)c1  10 to 100 nM
1  CCC(CC)ON(C[C@@H](O)[C@H](Cc1ccccc1)NC(=O)O[C@H]1CO[C@H]2OCC[C@H]21)S(=O)(=O)c1ccc(O)cc1        < 1 nM

Ask: What value of measured Ki is listed for COC(=O)Nc1nc2cc(S(=O)(=O)N(C[C@@H](O)[C@H](Cc3ccccc3)NC(=O)O[C@H]3CCOC3)OC3CCCC3)ccc2[nH]1 ?
Reply: < 1 nM

Each recorded value in this set is attributed to patent US20040097594A1.
